tested on: MRC-5 cell line (diploid human embryonic lung fibroblast); experiment: Cytotoxicity on MRC-5 cells; type: cell-based
// reported CYT IC50 per item

# annotated cases, reported CYT IC50 shown
> print(dat)
                                   compound                               target.desc       result
1  O=C(c1ccccc1)N1CCN(c2ccc(Nc3ccccn3)nn2)CC1  MRC-5 cell line (diploid human embryonic lung fibroblast)   >10.8 mg/L
2  O=C(CN1CCC(C(=O)Nc2ccc(Oc3ccccc3)cc2)CC1)Nc1ccc(F)cc1  MRC-5 cell line (diploid human embryonic lung fibroblast)  >13.43 mg/L
3      O=C(Cc1ccc(F)cc1)Nc1nc(-c2ccccn2)cs1  MRC-5 cell line (diploid human embryonic lung fibroblast)    >9.4 mg/L
4  O=C(COc1cccc2c1CCN(Cc1ccccc1F)C2=O)N1CCC(Cc2ccccc2)CC1  MRC-5 cell line (diploid human embryonic lung fibroblast)    4.56 mg/L
5  CCC(=O)c1c(NC(=O)c2ccc(C)cc2)sc2c1CCN(CC)C2  MRC-5 cell line (diploid human embryonic lung fibroblast)  >11.79 mg/L

Please report CYT IC50 with MRC-5 cell line (diploid human embryonic lung fibroblast) for item O=S(=O)(c1cccc(F)c1)N1CCN(c2ccc(Nc3cccnc3)nn2)CC1 .
0.94 mg/L

Please report CYT IC50 with MRC-5 cell line (diploid human embryonic lung fibroblast) for item Cc1cccc(-n2nc3c(c2NC(=O)Nc2cccc(Cl)c2)CSC3)c1 .
>11.55 mg/L

Please report CYT IC50 with MRC-5 cell line (diploid human embryonic lung fibroblast) for item COC(=O)c1c(NC(=O)c2cc3ccccc3oc2=O)sc2c1CCN(Cc1ccccc1)C2 .
8.92 mg/L

Please report CYT IC50 with MRC-5 cell line (diploid human embryonic lung fibroblast) for item O=S(=O)(c1cccnc1)N1CCN(c2ccc(-c3cccs3)nn2)CC1 .
>11.6 mg/L

Please report CYT IC50 with MRC-5 cell line (diploid human embryonic lung fibroblast) for item O=C(Nc1nc(-c2ccncc2)cs1)C1CCCN(S(=O)(=O)c2ccc(Cl)s2)C1 (stereo not shown) .
>14.07 mg/L

Please report CYT IC50 with MRC-5 cell line (diploid human embryonic lung fibroblast) for item Cc1ccc(N2CCn3c2nnc(C(=O)NCCC2=CCCCC2)c3=O)cc1 .
>11.38 mg/L

Please report CYT IC50 with MRC-5 cell line (diploid human embryonic lung fibroblast) for item CSc1cccc(C(=O)N(Cc2cccnc2)c2nc3ccc(S(C)(=O)=O)cc3s2)c1 .
>14.09 mg/L

Please report CYT IC50 with MRC-5 cell line (diploid human embryonic lung fibroblast) for item CCCn1/c(=N/C(=O)C2=COCCO2)sc2c(C)ccc(OC)c21 .
>10.45 mg/L

Please report CYT IC50 with MRC-5 cell line (diploid human embryonic lung fibroblast) for item CSCc1csc(NC(=O)Cc2ccc(Cl)cc2)n1 .
3.7 mg/L

---

system: Brugia malayi microfilariae; assay: Anti-Brugia malayi microfilariae motility assay; assay type: cell-based; details: B. malayi microfilariae; 12.5 µM
// criterion not met strictly below 30% in LF/MF % Motility Reduction at 12.5µM; criterion met otherwise

> print(dat)
                              compound                  target.desc          label
1  COc1cccc2sc(Nc3nnc(-c4cccs4)o3)nc12  Brugia malayi microfilariae  criterion met

Hello, I need to know if Cc1c(C(=O)N2CCC(C)CC2)sc2nc(-c3ccc(F)cc3)cn12 has measured LF/MF % Motility Reduction at 12.5µM not below 30%. Thanks!
criterion not met

Hello, I need to know if O=C(c1ccccc1)N1CCN(c2ccc(Nc3ccccn3)nn2)CC1 has measured LF/MF % Motility Reduction at 12.5µM not below 30%. Thanks!
criterion not met

Hello, I need to know if O=C(Nc1nc2c(F)cc(F)cc2s1)c1nc2ccccc2s1 has measured LF/MF % Motility Reduction at 12.5µM not below 30%. Thanks!
criterion met

Hello, I need to know if O=C(Cc1ccc(F)cc1)Nc1nc(-c2ccccn2)cs1 has measured LF/MF % Motility Reduction at 12.5µM not below 30%. Thanks!
criterion not met

Hello, I need to know if O=C(Cc1csc(NC(=O)C2CCC(=O)N2)n1)NCc1ccccn1 (stereo not shown) has measured LF/MF % Motility Reduction at 12.5µM not below 30%. Thanks!
criterion not met

Hello, I need to know if Cc1ccc(C(=O)Nc2nnc(Cc3cccs3)o2)cc1C has measured LF/MF % Motility Reduction at 12.5µM not below 30%. Thanks!
criterion met

Hello, I need to know if CS(=O)(=O)c1ccc2nc(N(Cc3cccnc3)C(=O)c3ccc4ccccc4c3)sc2c1 has measured LF/MF % Motility Reduction at 12.5µM not below 30%. Thanks!
criterion not met

Hello, I need to know if O=C(Nc1nc2c(s1)CSc1ccccc1-2)C1COc2ccccc2O1 (stereo not shown) has measured LF/MF % Motility Reduction at 12.5µM not below 30%. Thanks!
criterion met

Hello, I need to know if CCC(=O)c1c(NC(=O)c2ccc(C)cc2)sc2c1CCN(CC)C2 has measured LF/MF % Motility Reduction at 12.5µM not below 30%. Thanks!
criterion met

---

system: Brugia malayi microfilariae; test: Anti-Brugia malayi microfilariae motility assay; assay type: cell-based; conditions: B. malayi microfilariae; 12.5 µM
measured-metric: LF/MF % Motility Reduction at 12.5µM (%)
Give a bare numeral; the unit % is implied.

Item O=C(Nc1nc2c(s1)CSc1ccccc1-2)C1CCCN1S(=O)(=O)c1cccs1 (centres unmarked) : provide LF/MF % Motility Reduction at 12.5µM
100

Item O=C(COc1ccc(Cl)cc1Cl)Nc1nnc(C23CC4CC(CC(C4)C2)C3)s1 : provide LF/MF % Motility Reduction at 12.5µM
100

Item CC(C)(C)n1ncc2c(=O)n(CCC(=O)NCc3ccccc3Cl)cnc21 : provide LF/MF % Motility Reduction at 12.5µM
20

Item CCCn1/c(=N/C(=O)C2=COCCO2)sc2c(C)ccc(OC)c21 : provide LF/MF % Motility Reduction at 12.5µM
0

Item COc1ccc(SCC(=O)Nc2nc(-c3ccccn3)cs2)cc1 : provide LF/MF % Motility Reduction at 12.5µM
0

---

system: MRC-5 cell line (diploid human embryonic lung fibroblast); experiment: Cytotoxicity on MRC-5 cells; format: cell-based
measured-metric: CYT IC50

# annotated cases, reported CYT IC50 shown
> print(dat)
                                    compound        result
 1  C=CCN(CC=C)S(=O)(=O)c1ccc(C(=O)Nc2nc3ccc(C(C)C)cc3s2)cc1  >10.99 µg/mL
 2  CCOc1ccc2nc(N(Cc3cccnc3)C(=O)c3ccc(Cl)s3)sc2c1   >12.2 µg/mL
 3  CSc1ccc2nc(N(Cc3cccnc3)C(=O)c3ccc(C(C)(C)C)cc3)sc2c1    7.16 µg/mL
 4  O=C(CSc1ccc2nnc(-c3ccccn3)n2n1)NCC1CCCO1 (stereo not drawn)   >12.1 µg/mL
 5  Cc1c(C(=O)N2CCC(C)CC2)sc2nc(-c3ccc(F)cc3)cn12  >10.72 µg/mL
 6  O=C(COc1ccc(Cl)cc1Cl)Nc1nnc(C23CC4CC(CC(C4)C2)C3)s1  >13.15 µg/mL
 7  CCCc1cc(=O)[nH]c(-n2nc(C)cc2NC(=O)C23CC4CC(CC(C4)C2)C3)n1   <0.12 µg/mL
 8  O=C(Cc1csc(NC(=O)C2CCC(=O)N2)n1)NCc1ccccn1 (stereo not drawn)  >10.78 µg/mL
 9  O=C(Nc1nc2c(s1)CSc1ccccc1-2)C1COc2ccccc2O1 (stereo not drawn)    2.62 µg/mL
10    O=C(Nc1nc2c(F)cc(F)cc2s1)c1nc2ccccc2s1  >10.42 µg/mL

Item CCOC(=O)c1ccc(NC(=O)CSc2nnc(NC(=O)C34CC5CC(CC(C5)C3)C4)s2)cc1 : provide CYT IC50
>15.02 µg/mL

Item O=C(Nc1nc2c(s1)CSc1ccccc1-2)C1CCCN1S(=O)(=O)c1cccs1 (stereo not drawn) : provide CYT IC50
1.88 µg/mL

Item COc1ccc(SCC(=O)Nc2nc(-c3ccccn3)cs2)cc1 : provide CYT IC50
>10.72 µg/mL

Item COc1ccc(N2CCCS2(=O)=O)cc1NC(=O)c1cc(Cl)ccc1OC : provide CYT IC50
>12.3 µg/mL

Item Cc1cc(NC(=O)CSc2ccc3nnc(-c4cccs4)n3n2)no1 : provide CYT IC50
>11.17 µg/mL

---

tested on: Brugia malayi microfilariae; assay: Anti-Brugia malayi microfilariae motility assay; format: cell-based; conditions: B. malayi microfilariae; 12.5 µM
// reported LF/MF % Motility Reduction at 12.5µM per item
Reply with a number, then the unit it belongs to.

> print(dat)
                            smiles.notation                  target.desc  result
1  O=S(=O)(c1cccc(F)c1)N1CCN(c2ccc(Nc3cccnc3)nn2)CC1  Brugia malayi microfilariae      0%
2  CCOc1ccc2nc(N(Cc3cccnc3)C(=O)c3ccc(Cl)s3)sc2c1  Brugia malayi microfilariae      0%
3  O=C(COc1cccc2c1CCN(Cc1ccccc1F)C2=O)N1CCC(Cc2ccccc2)CC1  Brugia malayi microfilariae    100%
4  CCOC(=O)c1ccc(NC(=O)CSc2nnc(NC(=O)C34CC5CC(CC(C5)C3)C4)s2)cc1  Brugia malayi microfilariae    100%
5  Cc1cccc(-n2nc3c(c2NC(=O)Nc2cccc(Cl)c2)CSC3)c1  Brugia malayi microfilariae    100%

Item CSc1cccc(C(=O)N(Cc2cccnc2)c2nc3ccc(S(C)(=O)=O)cc3s2)c1 : provide LF/MF % Motility Reduction at 12.5µM
0%
